- TESTED SYSTEM: UniProt P0C6X1
- RUN DESCRIPTION: HCoV-229E 3CLpro inhibition assay (FRET)
- Assay type: biochemical
- TEST PARAMETERS: protease 25 nM, FRET substrate 15 μM, pre-incubated 1 hr, read-out: 229E (activity in different coronaviruses)
Measured IC50 accompanies every entry in the list below.
The response must be a number in nM with no trailing unit.

Worked examples follow.
>  <COMPOUND>
Cc1cc(C(=O)N[C@@H](CCC(C)C)C(=O)NN(C[C@@H]2CCNC2=O)C(=O)[C@H](F)Cl)no1 [Example 101]

>  <UNITS LABEL>
nM

>  <TEST VALUE>
74

$$$$
>  <COMPOUND>
Cc1cc(C(=O)N[C@@H](CC2(C)CC2)C(=O)NN(C[C@@H]2CCNC2=O)C(=O)[C@H](F)Cl)no1 [Example 70]

>  <UNITS LABEL>
nM

>  <TEST VALUE>
24

$$$$
>  <COMPOUND>
CC(C)C[C@H](NC(=O)c1cc2ccccc2[nH]1)C(=O)NN(C[C@@H]1CCNC1=O)C(=O)CCl (single isomer, unassigned) [Example 51-A]

>  <UNITS LABEL>
nM

>  <TEST VALUE>
17

$$$$

Memo: Cc1cc(C(=O)N[C@@H](CC23CC(C2)C3)C(=O)NN(C[C@@H]2CCNC2=O)C(=O)[C@H](F)Cl)no1 [Example 71] , reported IC50: 25

For O=C(N[C@@H](CC12CC(C1)C2)C(=O)NN(C[C@@H]1CCNC1=O)C(=O)[C@H](F)Cl)c1cc(C(F)(F)F)on1 [Example 99] the compound record lists IC50 as 24

Short answer for CC1(C[C@H](NC(=O)c2cc(C(F)F)on2)C(=O)NN(C[C@@H]2CCNC2=O)C(=O)[C@H](F)Cl)CC1 [Example 100] : IC50 was 28

response.value for CC(C)C[C@H](NC(=O)c1cc2ccccc2[nH]1)C(=O)NN(CCC(N)=O)C(=O)CCl [Example 28] (field: IC50) = 13

Value source: patent US12060333B2
